Recorded values, source patent US20240270821A1.

Reported Relative cAMP EC50 by item:
Target: hGLP-1R (Homo sapiens, UniProt P43220)
Sequence (P43220 24-463): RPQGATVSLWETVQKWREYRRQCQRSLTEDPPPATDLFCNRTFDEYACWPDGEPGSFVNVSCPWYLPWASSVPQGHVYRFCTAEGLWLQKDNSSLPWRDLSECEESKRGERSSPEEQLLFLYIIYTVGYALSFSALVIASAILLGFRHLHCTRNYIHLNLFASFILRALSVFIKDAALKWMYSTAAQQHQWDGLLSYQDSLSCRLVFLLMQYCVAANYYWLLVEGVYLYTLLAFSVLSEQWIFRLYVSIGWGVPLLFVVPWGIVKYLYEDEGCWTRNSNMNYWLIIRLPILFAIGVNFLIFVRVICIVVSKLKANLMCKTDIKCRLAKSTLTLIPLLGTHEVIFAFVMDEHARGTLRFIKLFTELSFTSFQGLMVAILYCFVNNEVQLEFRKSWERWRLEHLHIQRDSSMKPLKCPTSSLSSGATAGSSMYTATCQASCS
Assay: cell-based or functional assay
Starred links: 1 amine or outer side, 2 acyl side, 3 side chain; linkers in the order of their positions; H or OH if unused. Non-standard residues stand in square brackets, D forms with d. Groups on a side chain read outwards from the residue. No end group written: not given here. *: point of attachment. C20 diacid = O=C(O)CCCCCCCCCCCCCCCCCCC(=O)*; Phe(4-CN) = N#Cc1ccc(C[C@H](N)C(=O)O)cc1; αMePhe(2-F) = C[C@](N)(Cc1ccccc1F)C(=O)O; γGlu = O=C(O)[C@H](CCC(=O)[*:2])N[*:1]; AEEA = NCCOCCOCC(=O)O; Aib = CC(C)(N)C(=O)O
Numeric only. Scale: nM

Record excerpt, results attached:
{"binder": "YXQGTFTSDFSXXLDKKAQXAFIEYLLEGGPSSGAPPPSGT (synthetic construct; SITE 2: note = 2-Aminoisobutyric Acid; SITE 12: note = L-ornithine; SITE 13: note = alpha-methyl-leucine; SITE 17: note = Lysine is chemically modified through conjugation of the epsilon-amino group of the Lysine side chain with (gamma-Glu)2-CO-(CH2)16-CO2H; SITE 20: note = 2-Am) [Example 260]", "unit info": "nM", "Relative cAMP EC50": 3.85}
{"binder": "YXQGTFTSDFSXXLDKKAQXAFIEYLLEGGPSSGAPXPGGS (Aib, Orn, αMeL, Hyp; acylated Lys; C-terminal amide; synthetic construct; SITE 2: note = 2-Aminoisobutyric Acid; SITE 12: note = L-ornithine; SITE 13: note = alpha-methyl-leucine; SITE 17: note = Lysine is chemically modified through conjugation of the epsilon-amino group of the Lysine side chain with (2-[2-(2-Amino-ethoxy)-ethoxy]-acetyl)-(gamma-Glu)) [Example 236]", "unit info": "nM", "Relative cAMP EC50": 3.33}
{"binder": "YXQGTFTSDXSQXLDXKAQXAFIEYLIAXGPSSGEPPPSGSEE (non-natural residues, γGlu-C18 diacid lysine acylation, C-terminal amide; synthetic construct; SITE 2: note = 2-Aminoisobutyric Acid; SITE 10: note = 3-(4-Pyridyl)-L-alanine; SITE 13: note = alpha-methyl-leucine; SITE 16: note = L-ornithine; SITE 17: note = Lysine is chemically modified through conjugation of the epsilon-amino group of the Lysine side chain with D-Glutami) [Example 1101]", "unit info": "nM", "Relative cAMP EC50": 1.75}
{"binder": "Y[Aib]QGT[αMePhe(2-F)]TSD[Phe(4-CN)]SILLDKQAQK([AEEA-AEEA-γGlu-C20 diacid])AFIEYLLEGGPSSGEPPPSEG-NH2 [Example 321]", "unit info": "nM", "Relative cAMP EC50": 0.798}

Task item: Tell me measured Relative cAMP EC50 for YXQGTFTSDFSXXLDKKAQXAFIEWLLEGGHSSGAPPPEGS (synthetic construct; SITE 2: note = 2-Aminoisobutyric Acid; SITE 12: note = L-ornithine; SITE 13: note = alpha-methyl-leucine; SITE 17: note = Lysine is chemically modified through conjugation of the epsilon-amino group of the Lysine side chain with (2-[2-(2-Amino-ethoxy)-ethoxy]-acetyl)-(gamma-Glu)) [Example 126] please.
Reply: 3.97

Task item: Tell me measured Relative cAMP EC50 for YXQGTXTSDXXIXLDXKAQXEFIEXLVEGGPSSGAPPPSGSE (synthetic construct; SITE 2: note = 2-Aminoisobutyric Acid; SITE 6: note = alpha-methyl-2-fluoro-L-phenylalanine; SITE 10: note = 3-(4-Pyridyl)-L-alanine; SITE 11: note = alpha-methyl-L-serine; SITE 13: note = alpha-methyl-leucine; SITE 16: note = L-ornithine; SITE 17: note = Lysine is chemically mo) [Example 751] please.
Reply: 0.302
